# maps each entry to its EC50
- target: human GPR40 (Homo sapiens, UniProt O14842)
- Sequence (O14842 whole entry): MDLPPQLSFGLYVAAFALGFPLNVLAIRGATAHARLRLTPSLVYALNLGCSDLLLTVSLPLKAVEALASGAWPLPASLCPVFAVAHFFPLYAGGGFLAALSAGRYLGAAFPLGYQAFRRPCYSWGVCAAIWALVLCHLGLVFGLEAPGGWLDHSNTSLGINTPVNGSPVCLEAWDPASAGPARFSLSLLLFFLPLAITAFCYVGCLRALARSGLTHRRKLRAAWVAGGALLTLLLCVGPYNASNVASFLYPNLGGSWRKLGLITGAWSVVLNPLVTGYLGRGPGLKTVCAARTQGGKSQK
- methodDescription: GPR40 calcium flux assay, human GPR40
- conditionsUsed: HEK293 cells stably expressing GPR40; table does not say human or rat
measuredMetric: EC50 (nM)

1) CCc1ccc(C2=C(COc3ccc(CCC(=O)O)c(C(F)(F)F)c3)CCC2)cc1
3510
2) Cc1ccc(CC2=C(COc3ccc(CCC(=O)O)cc3)CCC2)cc1
228
3) O=C(O)CCc1ccc(OCC2=C(c3ccccc3)CC(F)(F)C2)cc1Cl
836

---

- target: Human GPR120 short form (Homo sapiens)
- Construct: expressed in transfected cells
- Sequence (Q5NUL3 whole entry): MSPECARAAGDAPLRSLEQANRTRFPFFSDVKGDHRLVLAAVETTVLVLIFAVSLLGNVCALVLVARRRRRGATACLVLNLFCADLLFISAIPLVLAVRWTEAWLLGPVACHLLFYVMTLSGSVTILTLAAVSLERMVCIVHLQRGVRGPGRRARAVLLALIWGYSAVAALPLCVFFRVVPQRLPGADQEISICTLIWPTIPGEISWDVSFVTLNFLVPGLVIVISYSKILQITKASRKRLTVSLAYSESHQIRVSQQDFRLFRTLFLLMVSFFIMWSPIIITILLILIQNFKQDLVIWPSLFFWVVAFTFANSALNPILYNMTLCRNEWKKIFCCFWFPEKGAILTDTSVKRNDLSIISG
- methodDescription: Human GPR120 calcium flux assay, Procedure Calcium B (4200 cells/well)
- Format: cell-based
measuredMetric: EC50 (nM)

1) Cc1cc(OCC2=C(c3ccc(Cl)cc3)CC(F)(F)C2)c(F)cc1CCC(=O)O
88
2) Cc1c(CCC(=O)O)ccc(OCC2=C(c3ccc(Cl)cc3Cl)CCC2)c1C
344
3) Cc1cc(CCC(=O)O)ccc1OCC1=C(c2cccs2)CCC(F)(F)C1
118
4) Cc1cc(CCC(=O)O)ccc1OCC1=C(c2ccccc2)CCC(F)(F)C1
89
5) O=C(O)CCc1ccc(OCC2=C(C3CCC3)CCCC2)cc1C(F)(F)F
1350
6) Cc1cc(CCC(=O)O)ccc1OCC1=C(c2ccc(F)cc2F)CCC(F)(F)C1
120

Measured values drawn from patent US11230526B1 for this set.
